Below are IC50 values recorded for 5-hydroxytryptamine receptor 3A (Rattus norvegicus).
Write the answer as a number in µM, unit excluded.

Entry Smiles: NCCc1coc2ccc(C(N)=O)cc12
Unit Text: µM
IC50: 7.41

Lab note: next compound to report on.
Record CN(C)CCc1coc2ccc(C(N)=O)cc12 : what is its IC50 with 5-hydroxytryptamine receptor 3A (Rattus norvegicus)? 3.98
